- Test system: DERL-7 (IL-2 2.5 ng/mL)
- Assay details: percent inhibition of viability; higher = more inhibition;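 also: normalised to DMSO-only wells as negative and benzethonium chloride as positive control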
- Recorded conditions: 72 h; 10000 nM
Metric: percent inhibition of viability (%)
Reply numerically in %, unit not repeated.

| Compound | Units label | Reported value |
| --- | --- | --- |
| Cc1[nH]c(/C=C2\C(=O)Nc3ccccc32)c(C)c1CCC(=O)O [Orantinib] (max concentration tested 10000 nM) | % | -8.27 |
| C[C@H]1C[C@@H]2[C@H]([C@@H](O)C[C@@]3(C)[C@H]2CC[C@]3(O)C(=O)CO)[C@@]2(C)C=CC(=O)C=C12 [Methylprednisolone] (max concentration tested 10000 nM) | % | 101 |
| CNC(=O)c1cccc2cc(Oc3ccnc4cc(OCC5(N)CC5)c(OC)cc34)ccc12 [Lucitanib] (max concentration tested 10000 nM) | % | 23.4 |
| COc1cc(O)c2c(c1)/C=C/C[C@H](O)[C@H](O)C(=O)/C=C\C[C@H](C)OC2=O [(5Z)-7-Oxozeaenol] (max concentration tested 10000 nM) | % | 101 |

Input: What value of percent inhibition of viability has been reported for the following compound? COC(=O)c1ccc2c(c1)NC(=O)/C2=C(\Nc1ccc(N(C)C(=O)CN2CCN(C)CC2)cc1)c1ccccc1 [Nintedanib] (max concentration tested 10000 nM)
Output: 100

* * *

compounds and their reported percent inhibition of viability
- Test system: NK-92 (IL-2 2.5 ng/mL)
- Assay details: percent inhibition of viability; higher = more inhibition
- Recorded conditions: 72 h; 1000 nM
Number in %, nothing else.

Example cases with answers are listed next.
| Compound | Tested system | Metric | Units label | Reported value |
| --- | --- | --- | --- | --- |
| CC(C)Oc1ccc(C(=O)N[C@H](CNC(=O)CN(C)C)Cc2ccc(-c3cn4cccc([C@H](C)O)c4n3)cc2)cc1Cl (max concentration tested 10000 nM) | NK-92 (IL-2 2.5 ng/mL) | percent inhibition of viability | % | 96.7 |
| CN1CCN(c2cc(C(=O)Nc3ccc4c(c3)-c3c(c(C(N)=O)nn3-c3ccc(F)cc3)CC4)c(Cl)cn2)CC1 [PHA 408] (max concentration tested 10000 nM) | NK-92 (IL-2 2.5 ng/mL) | percent inhibition of viability | % | 12.9 |
| C#Cc1cccc(Nc2ncnc3cc4c(cc23)OCCOCCOCCO4)c1 [Icotinib] (max concentration tested 10000 nM) | NK-92 (IL-2 2.5 ng/mL) | percent inhibition of viability | % | 9.17 |

API: the following record is the query input.
Input: Can you share its percent inhibition of viability? I mean this compound: CC1=C(/C=C/C(C)=C/C=C/C(C)=C/C(=O)O)C(C)(C)CCC1 [Tretinoin] (max concentration tested 10000 nM)
Output: 0.15

* * *

- System: normal primary NK cells, pool 2 (3 donors) (IL-2 2.5 ng/mL)
- Assay details: percent inhibition of viability; higher = more inhibition
- Recorded conditions: 72 h; 1000 nM
Measured percent inhibition of viability by item
Give the number; % is assumed, so skip it.

Sample records with percent inhibition of viability:
| Compound | percent inhibition of viability / % |
| --- | --- |
| O=C(Nc1cccc(Cl)c1)Nc1ncc(CCNc2ncnc3ccsc23)s1 [SNS-314] (max concentration tested 1000 nM) | 5.48 |
| Cc1cc(C(C)Nc2ccccc2)c2nc(N3CCOCC3)cc(=O)n2c1 (stereo not drawn) [TGX-221] (max concentration tested 10000 nM) | 4.63 |

Input: Request the reported percent inhibition of viability associated with CC(=O)NCC(=O)N1[C@@H]2CC[C@H]1c1ccc(Nc3ncc(C(F)(F)F)c(NC4CCC4)n3)cc12 (max concentration tested 10000 nM)
Output: 50.3
